Listing of entries alongside the reported kon.
Biological target: T1, 4Ig human B7-H3 (human, UniProt Q5ZPR3 29-466, limits assumed)
T1 construct: Soluble analyte in SPR; also called 4Ig-B7H3; 4Ig B7H3
T1 sequence: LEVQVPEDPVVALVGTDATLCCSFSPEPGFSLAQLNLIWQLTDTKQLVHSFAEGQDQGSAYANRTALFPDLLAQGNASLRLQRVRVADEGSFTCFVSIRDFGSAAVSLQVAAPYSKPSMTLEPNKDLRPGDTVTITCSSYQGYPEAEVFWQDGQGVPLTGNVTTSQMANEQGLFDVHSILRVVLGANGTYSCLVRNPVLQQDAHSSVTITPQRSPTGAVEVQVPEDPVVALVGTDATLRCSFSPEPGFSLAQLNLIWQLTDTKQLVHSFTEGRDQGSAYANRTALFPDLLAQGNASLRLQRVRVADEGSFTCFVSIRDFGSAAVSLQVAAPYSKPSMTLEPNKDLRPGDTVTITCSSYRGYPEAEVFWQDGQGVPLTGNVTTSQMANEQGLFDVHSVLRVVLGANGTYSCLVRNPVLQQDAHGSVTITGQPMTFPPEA
Test: SPR, Carterra LSA; antibody captured on anti-human Fc lawn, 4Ig human B7-H3 as analyte
Answer format: numeric, M⁻¹ s⁻¹ implied, no suffix.

L4H2 (antibody, human IgG1, kappa, V domains shown, Humanized IgG1, HEK293; chains tied by the L/H names; also called YB8 L4 + YB8 H2) VH: QVQLQQSGAEVKKPGASVKVSCKASGYTFTNYDINWVRQATGQGLEWIGWIFPGDGSTQYNEKFKGRATLTRNTSISTAYMELSSLRSEDTAVYYCARQTTATWFAYWGQGTLVTVSS VL: EIVMTQSPDFQSVTPKEKVTLTCRASQSISDYLHWYQQKPDQSPKLLIKYASQSISGIPSRFSGSGSGTDFTLTINSVEAEDAGVYYCQNGHSFPLTFGQGTKLEIKR | 36000
L4H4 (antibody, human IgG1, kappa, V domains shown, Humanized IgG1, HEK293; chains tied by the L/H names; also called YB8 L4 + YB8 H4) VH: QVQLVQSGAEVKKPGASVKVSCKASGYTFTNYDINWVRQATGQGLEWIGWIFPGDGSTQYNEKFQGRVTMTTNTSISTAYMELSSLRSEDTAVYFCARQTTATWFAYWGQGTLVTVSS VL: EIVMTQSPDFQSVTPKEKVTLTCRASQSISDYLHWYQQKPDQSPKLLIKYASQSISGIPSRFSGSGSGTDFTLTINSVEAEDAGVYYCQNGHSFPLTFGQGTKLEIKR | 34000
L3H2 (antibody, human IgG1, kappa, V domains shown, Humanized IgG1, HEK293; chains tied by the L/H names; also called YB8 L3 + YB8 H2) VH: QVQLQQSGAEVKKPGASVKVSCKASGYTFTNYDINWVRQATGQGLEWIGWIFPGDGSTQYNEKFKGRATLTRNTSISTAYMELSSLRSEDTAVYYCARQTTATWFAYWGQGTLVTVSS VL: EIVMTQSPDFQSVTPKEKVTLTCRASQSISDYLHWYQQKPDQSPKLLIKYASQSISGVPSRFSGSGSGSDFTLTINSLEAEDAGVYYCQNGHSFPLTFGQGTKLEIKR | 32000
L4H1 (antibody, human IgG1, kappa, V domains shown, Humanized IgG1, HEK293; chains tied by the L/H names; also called YB8 L4 + YB8 H1) VH: QVQLVQSGAEVKKPGASVKVSCKASGYTFTNYDINWVRQATGQGLEWIGWIFPGDGSTQYNEKFQGRVTLTTNTSISTAYMELSSLRSEDTAVYYCARQTTATWFAYWGQGTLVTVSS VL: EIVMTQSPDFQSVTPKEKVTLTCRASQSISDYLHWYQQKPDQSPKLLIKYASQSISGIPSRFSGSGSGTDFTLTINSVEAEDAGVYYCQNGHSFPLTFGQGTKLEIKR | 24000
chimeric anti-B7H3 IgG (Chimeric Heavy Chain (Parental) + Chimeric Light chain (parental)) (antibody, V domains shown, Chimeric IgG1 with murine 8H9 variable domains, expressed in HEK293; also called Chimeric IgG; parental chimeric antibody) VH: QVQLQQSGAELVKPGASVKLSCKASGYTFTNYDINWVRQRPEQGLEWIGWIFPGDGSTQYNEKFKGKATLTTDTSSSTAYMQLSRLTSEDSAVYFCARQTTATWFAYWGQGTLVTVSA VL: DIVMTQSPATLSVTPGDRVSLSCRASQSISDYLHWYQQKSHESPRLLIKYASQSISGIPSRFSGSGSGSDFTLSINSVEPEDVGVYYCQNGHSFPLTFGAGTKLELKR | 78000
L3H6 (antibody, human IgG1, kappa, V domains shown, Humanized IgG1, HEK293; chains tied by the L/H names; also called YB8 L3 + YB8 H6) VH: QVQLQQSGAEVKKPGASVKLSCKASGYTFTNYDINWVRQATGQGLEWIGWIFPGDGSTQYAQKFQGRATLTTNTSISTAYMELSSLRSEDTAVYFCARQTTATWFAYWGQGTLVTVSS VL: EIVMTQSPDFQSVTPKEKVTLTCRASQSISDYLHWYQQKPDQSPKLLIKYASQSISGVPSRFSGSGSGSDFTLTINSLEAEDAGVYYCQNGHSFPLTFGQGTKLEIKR | 25000

For the binder L3H1 (antibody, human IgG1, kappa, V domains shown, Humanized IgG1, HEK293; chains tied by the L/H names; also called YB8 L3 + YB8 H1) VH: QVQLVQSGAEVKKPGASVKVSCKASGYTFTNYDINWVRQATGQGLEWIGWIFPGDGSTQYNEKFQGRVTLTTNTSISTAYMELSSLRSEDTAVYYCARQTTATWFAYWGQGTLVTVSS VL: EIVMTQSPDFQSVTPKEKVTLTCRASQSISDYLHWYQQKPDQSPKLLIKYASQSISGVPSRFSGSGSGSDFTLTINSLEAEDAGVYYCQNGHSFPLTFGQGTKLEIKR , report kon.
34000

For the binder L4H3 (antibody, human IgG1, kappa, V domains shown, Humanized IgG1, HEK293; chains tied by the L/H names; also called YB8 L4 + YB8 H3) VH: QVQLVQSGAEVKKPGASVKVSCKASGYTFTNYDINWVRQATGQGLEWMGWIFPGDGSTQYNEKFKGRVTLTRNTSISTAYMELSSLRSEDTAVYFCARQTTATWFAYWGQGTLVTVSS VL: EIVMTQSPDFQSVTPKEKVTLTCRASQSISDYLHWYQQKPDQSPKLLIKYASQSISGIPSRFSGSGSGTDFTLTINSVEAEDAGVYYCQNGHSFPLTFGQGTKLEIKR , report kon.
31000

For the binder L3H3 (antibody, human IgG1, kappa, V domains shown, Humanized IgG1, HEK293; chains tied by the L/H names; also called YB8 L3 + YB8 H3) VH: QVQLVQSGAEVKKPGASVKVSCKASGYTFTNYDINWVRQATGQGLEWMGWIFPGDGSTQYNEKFKGRVTLTRNTSISTAYMELSSLRSEDTAVYFCARQTTATWFAYWGQGTLVTVSS VL: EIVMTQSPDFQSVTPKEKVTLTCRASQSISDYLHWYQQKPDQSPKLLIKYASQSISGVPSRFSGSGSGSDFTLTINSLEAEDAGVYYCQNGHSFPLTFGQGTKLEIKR , report kon.
32000

For the binder L3H4 (antibody, human IgG1, kappa, V domains shown, Humanized IgG1, HEK293; chains tied by the L/H names; also called YB8 L3 + YB8 H4) VH: QVQLVQSGAEVKKPGASVKVSCKASGYTFTNYDINWVRQATGQGLEWIGWIFPGDGSTQYNEKFQGRVTMTTNTSISTAYMELSSLRSEDTAVYFCARQTTATWFAYWGQGTLVTVSS VL: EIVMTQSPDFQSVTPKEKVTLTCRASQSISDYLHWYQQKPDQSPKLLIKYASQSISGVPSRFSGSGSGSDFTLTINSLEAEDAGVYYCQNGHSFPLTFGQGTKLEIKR , report kon.
40000
